Kindly supply the reported Population Pyknosed Nuclei (%) values for the records listed here.
# Test system: HEK-293T
# assay.name: Multiplex assay against HEK293T
# Assay type: toxicity, cell-based
# protocol.conditions: human, 48 h, 10 µM, compound concentration 10 uM, replicate 2
Give bare numbers, in %.

CN1C(=O)[C@@H](NC(=O)c2cc3ccccc3[nH]2)N=C(c2ccccc2)c2ccccc21 [DEVAZEPIDE]: 43
Cc1c(P(=S)(c2ccccc2)c2ccccc2)n2ccccc2[n+]1C/C=C/c1ccccc1.[Br-]: 59

Please report Population Pyknosed Nuclei (%) for the following compound: Cc1c(Nc2ccc(S(=O)(=O)N3CCN(C)CC3)cc2F)nc2ccc(-c3cnn(C4CC4)c3)cn2c1=O
25

* * *

# Test system: Fibroblast
# assay.name: Multiplex assay against human fibroblast
# Assay type: toxicity, cell-based
# protocol.conditions: 48 h, 1 µM, compound concentration 1 uM, replicate 2
measurement.name: Population Normal (%)
Give bare numbers, in %.

Example entries and their recorded answers appear below.
N#Cc1cccc(C(=O)Nc2cc(-c3ccccc3)nn2-c2ccccc2)c1: 91
Cl.NC[C@@H]1O[C@H](C23CC4CC(CC(C4)C2)C3)Cc2c1ccc(O)c2O: 89
CC(C)c1cc(Nc2nc(N3CCC[C@H](N)C3)ncc2C(N)=O)cc(C(C)C)n1: 66

For the 5 compounds below, give their Population Normal (%) values.
1. N#CCNC(=O)c1ccc(-c2ccnc(Nc3ccc(N4CCOCC4)cc3)n2)cc1
2. CC(Cc1ccc(O)c(O)c1)C(C)Cc1ccc(O)c(O)c1 (centres undefined) [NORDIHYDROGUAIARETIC ACID]
3. CC(/C=C1\SC(=S)N(CCCC(=O)Nc2ccc(C(=O)O)c(O)c2)C1=O)=C\c1ccccc1
4. CN1C(=O)[C@@H](NC(=O)c2cc3ccccc3[nH]2)N=C(c2ccccc2)c2ccccc21 [DEVAZEPIDE]
5. Cc1c(P(=S)(c2ccccc2)c2ccccc2)n2ccccc2[n+]1C/C=C/c1ccccc1.[Br-]

84
80
87
92
89

Give the observed Population Normal (%) of CC(C)[C@H](CO)Nc1nc(Nc2cccc(Cl)c2)c2ncn(C(C)C)c2n1 for Fibroblast.
91

* * *

# System: U2OS
# assay.name: Incucyte cell viability with U2OS; note: filed as whole numbers so only -1 and 0 and 1 occur
# Format: toxicity, cell-based
# protocol.conditions: human, 24 h, 10 µM, compound concentration 10 uM, replicate number 1, timepoint 24 hours
measurement.name: Growth Rate
Answers are plain numbers.

CC(Cc1ccc(O)c(O)c1)C(C)Cc1ccc(O)c(O)c1 (stereo not given) [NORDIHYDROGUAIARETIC ACID]: 0
Cc1c(P(=S)(c2ccccc2)c2ccccc2)n2ccccc2[n+]1C/C=C/c1ccccc1.[Br-]: 0
N#CCNC(=O)c1ccc(-c2ccnc(Nc3ccc(N4CCOCC4)cc3)n2)cc1: 0
COc1ccc(Br)cc1S(=O)(=O)NC(=O)/C=C/c1ccccc1Cc1ccc2ccccc2c1: 1

Please report Growth Rate for the following compound: Oc1cccc(-c2nc(N3CCOCC3)c3oc4ncccc4c3n2)c1
0

* * *

# Test system: Fibroblast
# assay.name: Incucyte cell viability with human fibroblast; note: filed as whole numbers so only -1 and 0 and 1 occur
# Assay type: toxicity, cell-based
# protocol.conditions: 18 h, 10 µM, compound concentration 10 uM, replicate number 2, timepoint 18 hours
Kindly supply the reported Growth Rate values for the records listed here.
Numbers only.

CC1=C2C[C@H]3[C@@H](CC=C4C[C@@H](O)CC[C@@]43C)[C@@H]2CC[C@]12O[C@@H]1C[C@H](C)CN[C@H]1[C@H]2C: 1

For the 8 compounds below, give their Growth Rate values.
1. CC(/C=C1\SC(=S)N(CCCC(=O)Nc2ccc(C(=O)O)c(O)c2)C1=O)=C\c1ccccc1
2. CCOP(=O)(OCC)C(=Cc1cc(C(C)(C)C)c(O)c(C(C)(C)C)c1)P(=O)(OCC)OCC
3. CC[C@H](Nc1ncnc2[nH]cnc12)c1nc2cccc(F)c2c(=O)n1-c1ccccc1
4. N#CC1(c2ccccn2)CCN(Cc2cc(C(=O)O)c(=O)n3ccccc23)CC1
5. COc1ccc(Br)cc1S(=O)(=O)NC(=O)/C=C/c1ccccc1Cc1ccc2ccccc2c1
6. CC(C)(O)c1cncc(-c2nc3ccc(F)cc3n2C2CC2)c1
7. CCCCN(Cc1ccccc1)C(=O)c1ccc(S(=O)(=O)Nc2ccccc2)cc1
8. CC[C@@H]1C(=O)N(C)c2cnc(Nc3ccc(C(=O)NC4CCN(C)CC4)cc3OC)nc2N1C1CCCC1

[0, 1, 1, 1, 1, 0, 0, 1]
